Test system: DMS-273
Test: NCI tumour cell line growth inhibition, 48 h
Calls of active or inactive are those of the source. No stated cut-off is given here; in the data, active = GI50 up to about 1.1 µM and inactive = higher.
Labels: active, inactive

1) CC(=O)NCc1c(C(N)=O)ncn1Cc1ccccc1: inactive
2) COc1ccc2[nH]c3c(c2c1)[C@H](C)C[C@@H]1C(=O)N(c2ccccc2)C(=O)[C@H]31: inactive
3) CC(=O)NNc1ncc(C(=O)/C=C/c2ccccc2C)s1: inactive
4) COc1cc(CNc2nc3c(NC(C)=O)cc(C(F)(F)F)cc3nc2-c2ccccc2)cc(OC)c1OC: inactive
5) [O-][S+]1Cc2ccccc2CS1 (stereo unspecified): inactive
6) COc1ccc(CC#C/C=C/C(=O)NCC(C)C)cc1: inactive
7) COC1=C(C)C(=O)C2=C(C1=O)[C@@H]1[C@@H]3Cc4c(OC(=O)CO)c(C)c(OC)c(O)c4[C@H](CNC(=O)C(C)=O)N3[C@@H](C#N)[C@H](C2)N1C: active
8) CC(=O)OC1COC(N2C(=O)C(=O)c3ccccc32)C(OC(C)=O)C1OC(C)=O (stereo unspecified): inactive
9) O=C1C=CC2(C=C1)C[C@H](NC(=O)OCc1ccccc1)C(=O)O2: inactive
10) CO[C@H]1CC[C@]2(C)C3=CC[C@@]4(C)C(CC[C@@H]4C(C)CC[C@@H](C)C(C)C)C(=CCC2C1)O3 (stereo partly specified): inactive
11) O=C1C/C(=C/c2ccc(/C=C3/CC(=O)N(c4cccc(Br)c4)C3=O)cc2)C(=O)N1c1cccc(Br)c1: inactive
12) Cc1cc(O)nc(NN2C(Cl)C(=O)C2c2ccco2)n1 (stereo unspecified): inactive
13) Oc1cc(-c2ccccc2)nc2cc(Cl)ccc12: active
14) O=C1c2ccccc2C(=O)c2c(NCCNCCO)ccc(O)c21: inactive
15) COC(=O)c1nc(C(=O)OC)c2c([nH]c3ccccc32)c1C(=O)OC: inactive
16) O=C(NN1C(=O)C(Cl)C1c1ccc(O)cc1)c1ccccc1O (stereo unspecified): inactive
17) CC1CC2C3CCC4=CC(=O)C=CC4(C)C3(F)C(O)CC2(C)C1(O)C(=O)COP(=O)(O)O (stereo unspecified): inactive
18) O=C(C#Cc1cnc(O)nc1O)c1ccccc1: inactive
19) CCS/C(=N\c1ccccc1)SC: inactive
20) CCOC(=O)/C(I)=C/c1cc(OC)c(OC)c(OC)c1: inactive
21) CC(C)CS(=O)(=O)/C(=C(\c1ccc(Br)cc1)S(=O)(=O)CC(C)C)c1ccc(Br)cc1: inactive
